# assay_target: Vitamin D3 receptor (Homo sapiens) (UniProt P11473)
# run_description: Antagonist activity at human vitamin D receptor expressed in African green monkey COS7 cells assessed as inhibition of 1,25D3-induced transactivation after 16 hrs by dual luciferase reporter gene assay
# Assay type: cell-based
Active and inactive are the calls of the source. The calls are words filed in the database; no cut-off is given here.
assay_endpoint: antagonist activity (qualitative)

[[record]]
compound = "C=C1[C@H](O)CC(=C/C=C2\\CCC[C@]3(C)[C@@H]([C@H](C)CCCC(O)c4ccc(O)cc4)CC[C@@H]23)C[C@H]1O (some centres undefined)"
result = "Active"

[[record]]
compound = "C=C1[C@H](O)CC(=C/C=C2\\CCC[C@]3(C)[C@@H]([C@H](C)CCCC(=O)c4ccc(O)cc4)CC[C@@H]23)C[C@H]1O"
result = "Active"

[[record]]
compound = "C=C1[C@H](O)CC(=C/C=C2\\CCC[C@]3(C)[C@@H]([C@H](C)[C@@H](CCCC)CCC(OC)c4ccc(O)cc4)CC[C@@H]23)C[C@H]1O (some centres undefined)"
result = "Active"


====

# assay_target: Vitamin D3 receptor (Homo sapiens, UniProt P11473)
# Sequence (P11473 whole entry): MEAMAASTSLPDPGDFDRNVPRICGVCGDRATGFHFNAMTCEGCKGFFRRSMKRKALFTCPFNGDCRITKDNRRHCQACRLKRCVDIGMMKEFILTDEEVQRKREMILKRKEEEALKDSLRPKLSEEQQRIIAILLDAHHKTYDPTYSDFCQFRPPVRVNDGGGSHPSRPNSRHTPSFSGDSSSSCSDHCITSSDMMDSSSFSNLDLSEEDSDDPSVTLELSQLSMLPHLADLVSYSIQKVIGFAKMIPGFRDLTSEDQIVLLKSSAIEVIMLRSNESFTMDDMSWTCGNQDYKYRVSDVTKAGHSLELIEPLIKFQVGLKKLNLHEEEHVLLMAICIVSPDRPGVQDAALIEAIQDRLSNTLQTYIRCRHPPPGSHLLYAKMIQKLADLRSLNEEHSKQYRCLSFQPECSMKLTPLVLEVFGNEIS
# run_description: Displacement of [3H]-1,25-(OH)2D3 from N-terminal GST-tagged human recombinant vitamin D receptor ligand binding domain expressed in Escherichia coli BL21 (DE3) pLys S after 16 hrs
The entries below come with measured IC50 values attached.
assay_endpoint: IC50 (nM)

[[record]]
compound = "C=C1[C@H](O)CC(=C/C=C2\\CCC[C@]3(C)[C@@H]([C@H](C)[C@@H](CCCC)CCC(O)(c4ccc(O)cc4)c4ccc(O)cc4)CC[C@@H]23)C[C@H]1O"
assay_endpoint = "IC50"
quantitative_readout = 130

[[record]]
compound = "C=C1[C@H](O)CC(=C/C=C2\\CCC[C@]3(C)[C@@H]([C@H](C)CCCC(=O)c4ccc(O)cc4)CC[C@@H]23)C[C@H]1O"
assay_endpoint = "IC50"
quantitative_readout = 84

[[record]]
compound = "C=C1[C@H](O)CC(=C/C=C2\\CCC[C@]3(C)[C@@H]([C@H](C)[C@@H](CCCC)CCC(=O)c4ccc(O)cc4)CC[C@@H]23)C[C@H]1O"
assay_endpoint = "IC50"
quantitative_readout = 20

[[record]]
compound = "C=C1[C@H](O)CC(=C/C=C2\\CCC[C@]3(C)[C@@H]([C@H](C)[C@@H](CCCC)CCC(OC)c4ccc(O)cc4)CC[C@@H]23)C[C@H]1O (stereo partly drawn)"
assay_endpoint = "IC50"
quantitative_readout = 23

[[record]]
compound = "C=C1[C@H](O)CC(=C/C=C2\\CCC[C@]3(C)[C@@H]([C@H](C)CCCC(OC)c4ccc(O)cc4)CC[C@@H]23)C[C@H]1O (stereo partly drawn)"
assay_endpoint = "IC50"
quantitative_readout = 102

[[record]]
compound = "C=C1[C@H](O)CC(=C/C=C2\\CCC[C@]3(C)[C@@H]([C@H](C)CCCC(O)c4ccc(O)cc4)CC[C@@H]23)C[C@H]1O (stereo partly drawn)"
assay_endpoint = "IC50"
quantitative_readout = 36

[[record]]
compound = "C=C1[C@H](O)CC(=C/C=C2\\CCC[C@]3(C)[C@@H]([C@H](C)CCCC(O)(c4ccc(O)cc4)c4ccc(O)cc4)CC[C@@H]23)C[C@H]1O"
assay_endpoint = "IC50"
quantitative_readout = 520

[[record]]
compound = "C=C1[C@H](O)CC(=C/C=C2\\CCC[C@]3(C)[C@@H]([C@H](C)[C@@H](CCCC)CCC(O)c4ccc(O)cc4)CC[C@@H]23)C[C@H]1O (stereo partly drawn)"
assay_endpoint = "IC50"
quantitative_readout = 17

